# test.system: T1, sRAGE (V-C1-C2) lot LP08062 (human, UniProt Q15109 23-331, limits assumed)
# T1 construct: domain: V-C1-C2; also called Human RAGE; LP08062 (Rage)
# T1 sequence (Q15109 23-331 limits assumed): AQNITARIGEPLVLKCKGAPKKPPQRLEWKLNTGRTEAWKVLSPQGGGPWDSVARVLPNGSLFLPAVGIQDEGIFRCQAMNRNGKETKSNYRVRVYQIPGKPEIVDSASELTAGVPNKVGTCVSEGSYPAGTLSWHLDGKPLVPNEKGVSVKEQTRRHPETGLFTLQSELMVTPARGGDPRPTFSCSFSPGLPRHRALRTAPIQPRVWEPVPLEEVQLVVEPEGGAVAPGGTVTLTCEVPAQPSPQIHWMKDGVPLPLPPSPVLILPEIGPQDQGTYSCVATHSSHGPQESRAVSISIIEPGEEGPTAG
# assay.text: SPR (Biacore), mAb captured on anti-mouse Fc, sRAGE 15 nM, Langmuir 1:1
parameter: kon (M⁻¹ s⁻¹)

binder | parameter | reported.measurement
140 RAGE-1 (antibody, V domains shown, Anti-RAGE monoclonal antibody from a hybridoma, captured by anti-mouse Fc; also called Protein 140 RAGE-1) VH: QVQLQQPGAELVKPGASVRLSCKASGYTFTSYWMHWVKQRPGQGLEWIGEINPSNGRTNYNEKFKSKATLTVDKSSSTAYMQLSSLTSEDSAVYYCARDGLGYRPIAMDYWGQGTSVTVSS VL: QIVLTQSPAIMSASPGEKVTISCSASSSVSYMYWYQQKPGSSPKPWIYRTSNLASGVPARFSGSGSGTSYSLTISSMEAEDAATYYCQQYHSYPPMYTFGGGTKLEIK | kon | 5.19e+06
